- Tested on: OVCAR-5 ovarian
- Run Description: NCI tumour cell line growth inhibition, 48 h
Exercise: state measured TGI for each of the compounds provided.

**Q:** Which TGI reading was recorded for the compound CCOC(=O)C(NC(=O)N(C1=NCC(C)S1)C1CCCCC1)(OC)C(F)(F)F (stereo not given) ?
**A:** > 100 µM

**Q:** What about `CCOC(=O)C1=C(C(=O)c2ccc(C)cc2)C(c2cccc([N+](=O)[O-])c2)C(C(=O)c2ccc(C)cc2)=C(C(=O)OCC)N1` ?
**A:** 34.7 µM

**Q:** What about this compound? O=CC(O)C(O)C(O)C(O)C(=O)NCCCCCCCCCCCCNC(=O)C(O)C(O)C(O)C(O)C=O (stereo not given)
**A:** > 100 µM

**Q:** Lookup `Cc1cc(=O)n2nc(SCc3ccccc3)sc2n1`
**A:** > 100 µM

**Q:** How about this compound: COc1ccc(C2SCC(=O)N2NC(=O)C(O)c2ccccc2)cc1OC (stereo not given)
**A:** > 100 µM

====

- Tested on: SF-295 CNS
- Run Description: NCI tumour cell line growth inhibition, 48 h; in the data active means GI50 below about 0.43 µM; inactive means the rest
Your answer must be one of the following: true (active), false (inactive)

**Q:** How did this test come out for `FC(F)(F)c1cc(-c2nnc3n2N=C(N2CCCC2)CS3)cc(C(F)(F)F)c1` ?
**A:** false

**Q:** Can you handle `NC1CCCCC1.[O]=[Ge].[O]=[Ge].[O]=[Ge][OH].[O]=[Ge][OH]` next?
**A:** false

**Q:** And the next one, `O=C1C(c2c[nH]c3ccccc23)=C(c2c[nH]c3ccccc23)C(=O)N1O` ?
**A:** false

**Q:** Repeat for the following compound: `Cc1cc(/C=C\c2ccc3ccccc3[n+]2C)c(O)c2ncccc12`
**A:** true

**Q:** Item: `CCCc1c(CC)c(=N)c2ccccc2n1C`
**A:** false

**Q:** Note, next up: `COc1ccc(Nc2ncc(Br)c(NCCCNC(=O)C3CCC3)n2)cc1`
**A:** false

**Q:** Field entry: `O=C(c1ccc2ccccc2c1)c1c(C(F)(F)F)n([O-])c2cc(F)c(F)cc2[n+]1=O`
**A:** false

**Q:** Would you kindly repeat that for `CCCCCCCNc1nc(C(=O)OCC)ncc1-c1ccc(C(F)(F)F)cc1` ?
**A:** false

**Q:** // same read-out, input: `C/C(=N\O)c1cccc(Nc2cc(-n3ccnn3)c3ccccc3n2)c1`
**A:** false

**Q:** Continue with `COc1ccc2c(c1)C(=O)c1c-2n(CCCN=[N+]=[N-])c(=O)c2cc(N(C)C)ccc12`
**A:** false

**Q:** Please do the same for `COc1cc(/C=C2\CCC/C(=C\c3cc(OC)c(O)c(OC)c3)C2=O)cc(OC)c1O` as well.
**A:** false

====

- Test system: SNB-19 CNS
- Run Description: NCI tumour cell line growth inhibition, 48 h
Assay Readout: TGI

**Q:** Which TGI is reported for this molecule? COC1OC(Cc2nnc(C)o2)C(OCc2ccccc2)C(OCc2ccccc2)C1OCc1ccccc1 (stereo not given)
**A:** > 100 µM

**Q:** Try this molecule too: COc1ccc(C2SCC(=O)N2NC(=O)C(O)c2ccccc2)cc1OC (stereo not given)
**A:** > 100 µM

**Q:** Lookup `O=C1C=CC(=O)C(CNc2ccc(C(=O)OC34CC5CC(CC(C5)C3)C4)cc2)=C1`
**A:** 27.8 µM

**Q:** Thanks! And `O=C1NC(=O)/C(=C/c2ccc(S(=O)(=O)N/N=C/c3ccc(Cl)cc3)cc2)N1` ?
**A:** > 100 µM

**Q:** Then what about the molecule CSC(CC(=O)O)C(=O)O (stereo not given) ?
**A:** > 100 µM

**Q:** What do you have for `Cc1ccc(C(=O)N/N=C(\N=Nc2cccc(Cl)c2)c2ccc(N(CCC#N)CCC#N)cc2C)cc1` ?
**A:** > 100 µM

**Q:** Same lookup for CC(=O)OCC1OC(n2c3c(c(-c4cccc5ccccc45)c(C#N)c2=S)CCCC3)C(OC(C)=O)C(OC(C)=O)C1OC(C)=O (stereo not given) , please.
**A:** > 100 µM

**Q:** And what about the molecule `N=c1oc2ccc3ccccc3c2cc1C(N)=O` ?
**A:** > 100 µM

**Q:** // same read-out, input: CCOC(=O)C1(Br)C(c2ccccc2)NC(=O)NC1(C)Br (stereo not given)
**A:** > 66 µM

**Q:** Note, next up: `COc1ccccc1/C=C/[N+](=O)[O-]`
**A:** 19 µM
